assay: Plasma DF concentrations of rabbits with antigen-induced arthritis; type: in vivo, rabbit; settings: rabbit, plasma, po, 2 mg/kg; mean ± SD; read-out: t1/2 of DF in plasma (converted)
Attribute measured: half-life (h)
Respond numerically; units are h and should not be typed.

[in] Suppose we examine the molecule O=C(O)Cc1ccccc1Nc1c(Cl)cccc1Cl [DF-Na, diclofenac sodium] ; what half-life value has been reported?
[out] 12.8

----------
assay: Plasma DF concentrations of rabbits with antigen-induced arthritis; assay type: in vivo, rabbit; conditions: rabbit, plasma, po, 2 mg/kg; t = latest time point at which DF was quantifiable; mean ± SD; read-out: AUC0-t of DF in plasma
Attribute measured: AUC(0-t) (µg·h/mL)
Answer with a number only, understood to be in µg·h/mL.

[in] Return reported AUC(0-t); argument: O=C(O)Cc1ccccc1Nc1c(Cl)cccc1Cl [DF-Na, diclofenac sodium]
[out] 4.69

All figures here come from paper PMC5964640.
